- System: aP2
- protocol.description: aP2 mRNA expression in adipocytes (real-time PCR)
- Type: cell-based, human
- run.conditions: differentiating adipocytes transfected with oligomeric compound
In the oligonucleotide strings, read from the 5' end, every base follows the letter of its sugar. An asterisk marks phosphorothioate; unmarked linkages are phosphodiester. Other units and linkages are bracketed, terminal groups are in braces. A string of capitals states the bases alone. e = 2'-O-(2-methoxyethyl) (MOE); [5mC] = 5-methylcytosine; d = 2'-deoxy (DNA)
The entries below come with measured AP2 mRNA values attached.

Examples from the recorded data:
1) 328685 (e[5mC]*eG*eG*e[5mC]*e[5mC]*dG*dG*dA*dG*d[5mC]*d[5mC]*dA*dT*dA*dG*eA*e[5mC]*eT*e[5mC]*eG; antisense) [compound 328685] ... 73 percentage of untreated control (UTC)
2) 328362 (eT*eG*eT*eG*eT*dT*dT*dT*d[5mC]*dT*dG*dA*d[5mC]*dT*d[5mC]*eA*eG*eT*e[5mC]*eA) [compound 328362] ... 59 percentage of untreated control (UTC)
3) 327953 (antisense eA*eG*eA*eA*eT*eT*eG*e[5mC]*eG*eT*eT*eT*eG*eG*eA*e[5mC]*eA*eA*eT*e[5mC]*eA) [compound 327953] ... 92 percentage of untreated control (UTC)
4) NNNNNNNNNNNNNNNNNNNN [ISIS 29848, reference compound] ... 89 percentage of untreated control (UTC)

Below: the item to evaluate.
### Prompt May I ask what AP2 mRNA has been recorded for 328434 (antisense e[5mC]*eG*e[5mC]*eA*eT*d[5mC]*dT*dT*dG*dA*d[5mC]*dT*dG*dT*dA*eG*e[5mC]*eA*eT*eG) [compound 328434] ?
### Response 85 percentage of untreated control (UTC)

###

The entries below come with measured AP2 values attached.
- System: aP2
- protocol.description: aP2 mRNA expression in adipocytes (real-time PCR)
- Type: cell-based, human
- run.conditions: Table 20; adipocyte differentiation assay as in Example 13
- Method: Expression of the four hallmark genes, HSL, aP2, Glut4, and PPARγ, is also measured in adipocytes transfected with oligomeric compounds of the invention. Cells are lysed on day nine post-transfection and total RNA is harvested. The amount of total RNA in each sample is determined using a Ribogreen Assay (Invitrogen Life Technologies, Carlsbad, Calif.). […]
In the oligonucleotide strings, read from the 5' end, every base follows the letter of its sugar. An asterisk marks phosphorothioate; unmarked linkages are phosphodiester. Other units and linkages are bracketed, terminal groups are in braces. A string of capitals states the bases alone. e = 2'-O-(2-methoxyethyl) (MOE); [5mC] = 5-methylcytosine; d = 2'-deoxy (DNA)

1) 327901 (antisense eT*eG*eA*eG*e[5mC]*eT*eA*e[5mC]*eA*eG*eT*eG*e[5mC]*eT*eT*e[5mC]*eA*eT*e[5mC]*eT*e[5mC]*eA) [compound 327901] ... 0.42
2) 338664 (antisense e[5mC]*eA*eG*eA*e[5mC]*eT*e[5mC]*e[5mC]*e[5mC]*eA*eA*e[5mC]*eT*eG*eA*e[5mC]*e[5mC]*eA*eG*eA) [compound 338664] ... 1.01
3) 340927 (antisense eT*eG*eA*eG*e[5mC]*dT*dA*d[5mC]*dA*dG*dT*dG*d[5mC]*dT*dT*e[5mC]*eA*eT*e[5mC]*eT*e[5mC]*eA) [compound 340927] ... 0.77

Below: the item to evaluate.
### Prompt Report AP2 for 328382 (e[5mC]*eA*eG*eA*e[5mC]*dT*d[5mC]*d[5mC]*d[5mC]*dA*dA*d[5mC]*dT*dG*dA*e[5mC]*e[5mC]*eA*eG*eA) [compound 328382] tested on aP2.
### Response 0.89

###

The entries below come with measured aP2 mRNA values attached.
- System: aP2
- protocol.description: aP2 mRNA expression in adipocytes (real-time PCR)
- Type: cell-based, human
- run.conditions: differentiating adipocytes transfected with oligomeric compound; Table 75
In the oligonucleotide strings, read from the 5' end, every base follows the letter of its sugar. An asterisk marks phosphorothioate; unmarked linkages are phosphodiester. Other units and linkages are bracketed, terminal groups are in braces. A string of capitals states the bases alone. e = 2'-O-(2-methoxyethyl) (MOE); [5mC] = 5-methylcytosine

Examples from the recorded data:
1) 346919 (CUACCUGCACGAACAGCACUUUG; all 2'-MOE, all phosphorothioate, methylation of C and T or U not given here) [compound 346919] ... 64 percentage of untreated control (UTC)
2) 327969 (antisense eT*eG*eT*eG*eA*eG*eT*eT*e[5mC]*eT*eA*e[5mC]*e[5mC]*eA*eT*eT*eG*e[5mC]*e[5mC]*eA*eA*eA) [compound 327969] ... 44 percentage of untreated control (UTC)
3) 328099 (antisense eA*eA*eG*eA*eA*e[5mC]*eA*eT*eT*eA*eA*eG*e[5mC]*eA*eT*e[5mC]*eT*eG*eA*e[5mC]*eA) [compound 328099] ... 80 percentage of untreated control (UTC)
4) 346691 (GCAGAAGCAUUUCCACACAC; all 2'-MOE, all phosphorothioate, methylation of C and T or U not given here) [compound 346691] ... 69 percentage of untreated control (UTC)
5) 346908 (GCUUUGACAAUACUAUUGCACUG; all 2'-MOE, all phosphorothioate, methylation of C and T or U not given here) [compound 346908] ... 77 percentage of untreated control (UTC)

### Prompt Report aP2 mRNA for 327917 (antisense eT*e[5mC]*eA*eA*e[5mC]*eA*eT*e[5mC]*eA*eG*eT*e[5mC]*eT*eG*eA*eT*eA*eA*eG*e[5mC]*eT*eA) [compound 327917] tested on aP2.
### Response 32 percentage of untreated control (UTC)

### Prompt Ok, now 344613 (ACACCAAUGCCCUAGGGGAUGCG; anti-miR; all 2'-MOE, all phosphorothioate, methylation of C and T or U not given here) [compound 344613]
### Response 55 percentage of untreated control (UTC)

### Prompt Ok, now 327902 (antisense eG*eG*e[5mC]*eT*eG*eT*e[5mC]*eA*eA*eT*eT*e[5mC]*eA*eT*eA*eG*eG*eT*e[5mC]*eA*eG) [compound 327902]
### Response 58 percentage of untreated control (UTC)

### Prompt Ok, now 327968 (antisense e[5mC]*eA*eA*eT*eG*e[5mC]*eA*eA*e[5mC]*eA*eG*e[5mC]*eA*eA*eT*eG*e[5mC]*eA*e[5mC]) [compound 327968]
### Response 67 percentage of untreated control (UTC)

### Prompt Ok, now 327970 (antisense eA*e[5mC]*eA*eA*eA*eG*eT*eT*e[5mC]*eT*eG*eT*eA*eG*eT*eG*e[5mC]*eA*e[5mC]*eT*eG*eA) [compound 327970]
### Response 29 percentage of untreated control (UTC)

### Prompt Ok, now 328107 (antisense e[5mC]*eT*eG*eT*eG*eA*e[5mC]*eT*eT*e[5mC]*eT*e[5mC]*eT*eA*eT*e[5mC]*eT*eG*e[5mC]*e[5mC]*eT) [compound 328107]
### Response 68 percentage of untreated control (UTC)

###

- Tested on: B16-F10 cells
- protocol.description: Cell cycle assay in B16-F10 cells
- Type: cell-based, mouse
- run.conditions: 150 nM, 48 hours, relative to untreated control
In the oligonucleotide strings, read from the 5' end, every base follows the letter of its sugar. An asterisk marks phosphorothioate; unmarked linkages are phosphodiester. Other units and linkages are bracketed, terminal groups are in braces. A string of capitals states the bases alone. e = 2'-O-(2-methoxyethyl) (MOE); [5mC] = 5-methylcytosine; d = 2'-deoxy (DNA)
The entries below come with measured % cells in cell cycle phase G1 values attached.
Value expressed in %; do not type the unit.

Examples from the recorded data:
1. 327905 (antisense e[5mC]*eA*eG*eA*e[5mC]*eT*e[5mC]*e[5mC]*eG*eG*eT*eG*eG*eA*eA*eT*eG*eA*eA*eG*eG*eA) [compound 327905] ... 107
2. 327902 (antisense eG*eG*e[5mC]*eT*eG*eT*e[5mC]*eA*eA*eT*eT*e[5mC]*eA*eT*eA*eG*eG*eT*e[5mC]*eA*eG) [compound 327902] ... 112
3. 285717 (antisense TCGGTTCTTTCCAAGGCTGA; chemistry not given here) [compound 285717] ... 72
4. 328403 (antisense eA*eG*eG*e[5mC]*e[5mC]*dT*dA*dT*dT*d[5mC]*d[5mC]*dT*dG*dT*dA*eG*e[5mC]*eA*eA*eA) [compound 328403] ... 111
5. 327933 (antisense eA*eA*eG*eG*eG*eA*eT*eT*e[5mC]*e[5mC]*eT*eG*eG*eG*eA*eA*eA*eA*e[5mC]*eT*eG*eG*eA*e[5mC]) [compound 327933] ... 109

### Prompt May I ask what % cells in cell cycle phase G1 has been recorded for 345395 (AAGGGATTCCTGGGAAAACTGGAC; sugars from the 5' end e5 d10 e9, all phosphorothioate, methylation of C not given here) [compound 345395] ?
### Response 106

### Prompt Ok, now 25691 (antisense eG*e[5mC]*e[5mC]*eA*eA*dG*dG*d[5mC]*dG*dT*dG*dA*d[5mC]*dA*dT*eG*eA*eT*eA*eT) [compound 25691]
### Response 116

### Prompt Ok, now 328744 (antisense e[5mC]*eG*eG*eA*eT*d[5mC]*d[5mC]*dT*dG*dT*dT*dA*d[5mC]*d[5mC]*dT*e[5mC]*eA*e[5mC]*e[5mC]*eA) [compound 328744]
### Response 108

### Prompt Ok, now 328759 (antisense eG*eA*eG*eG*eG*dA*dT*dT*dG*dT*dA*dT*dG*dA*dA*e[5mC]*eA*eT*e[5mC]*eT) [compound 328759]
### Response 104
